- Test system: human skin tissue
- test-protocol: Penetration rate of AI compound in AI-helper composition through human skin in vitro, modified Franz cells
- Type: in vitro ADME
- experimental-parameters: with L-tryptophan isopropyl ester hydrochloride 6 % w/v in water; AI compound 0.5 % w/v; 25 °C
Label True when Skin penetration rate of AI compound is strictly below 10 μg/cm^2/h; otherwise label False.

compound	classification
O=C(O)CCCCC1CCSS1 (centres unmarked)	False
NCCS(=O)(=O)O	True
Cc1ncc(CO)c(CO)c1O.Cl	False
Nc1nc2ncc(CNc3ccc(C(=O)N[C@@H](CCC(=O)O)C(=O)O)cc3)nc2c(=O)[nH]1	True
CC1=C(/C=C/C(C)=C/C=C/C(C)=C/C=C/C=C(C)/C=C/C=C(C)/C=C/C2=C(C)CCCC2(C)C)C(C)(C)CCC1	False
Oc1ccc(C=Cc2cc(O)cc(O)c2)cc1	False
N[C@@H](CCC(=O)N[C@@H](CS)C(=O)NCC(=O)O)C(=O)O	False
O=C1O[C@H]([C@@H](O)CO)C(O)=C1O	False

----------
- test-protocol: Transdermal delivery of melatonin: plasma level of melatonin after applying composition to skin of a subject
- experimental-parameters: human, plasma, topical, 0.3 mL of 1% melatonin in water, Plasma level of melatonin, salt of tyrosine isopropyl ester, A− = Lactate ion, 221.97 mM, 0.30 mL applied, 2 hr after transdermal administration

compound	concentration at 2 h, ng/mL
COc1ccc2[nH]cc(CCNC(C)=O)c2c1 [Melatonin]	1.8

----------
- test-protocol: Transdermal delivery of melatonin: plasma level of melatonin after applying composition to skin of a subject
- experimental-parameters: human, plasma, topical, 3 mg, Plasma level of melatonin, Phenylalanine octyl ester hydrochloride 223.02 mM, 0.60 mL applied to skin, 0 hr after transdermal administration

molecule	concentration at 0 h / ng/mL
COc1ccc2[nH]cc(CCNC(C)=O)c2c1 [Melatonin]	0

----------
- test-protocol: Transdermal delivery of melatonin: plasma level of melatonin after applying composition to skin of a subject
- experimental-parameters: human, plasma, topical, Plasma level of melatonin, salt of tyrosine isopropyl ester, A− = I^−, 199.43 mM, 0.30 mL applied, 8 hr after transdermal administration

sample-smiles	concentration at 8 h [ng/mL]
COc1ccc2[nH]cc(CCNC(C)=O)c2c1	2.1
